Sourced from PubChem BioAssay

Method Description: MM1S myeloma cell viability, profiling panel, resazurin fluorescence, basal, 24 h, PK04 Diversity Set (AID 1174);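 also: MM1S multiple myeloma cell line; test concentration not given here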
Assay Setup: higher = more signal, called active from +8 up or from −8 down
Mark false (0) for z-score values under -0.7, and true (1) for everything at or above.

Determine whether measured z-score meets or exceeds -0.7 for CCCCN1CC=CC23O[C@@H]4/C=C\CCC(C)OC(=O)C4[C@H]2C(=O)N(CCCCCO)[C@@H]3C1=O (stereo partly drawn)
true (1)

Given the entry COC(=O)[C@@]1(Cc2ccc(OC)cc2)[C@H]2c3cc(C(=O)N4CCCC4)n(Cc4ccc(OC)c(OC)c4)c3C[C@H]2CN1C(=O)c1ccccc1 , answer whether its z-score meets or surpasses -0.7.
false (0)

Dear colleague, could you confirm whether C=CCOC(=O)[C@@H]1[C@H]2C(=O)O[C@H](c3ccccc3)[C@H](c3ccccc3)N2[C@H](c2ccc(OCCOC(=O)[C@@H]3C[C@@H]4C(=O)N[C@@H](CCCC[N+](C)(C)C)C(=O)N4[C@@H]3c3cccc(OCCO)c3)cc2)[C@@]12C(=O)Nc1ccc(I)cc12 has z-score at or above -0.7?
true (1)

Does COCCOC(=O)N1C(=O)[C@@]2(c3cc(C#CCCO)ccc31)[C@H](C(=O)N1CCN(c3ncccn3)CC1)[C@H]1C(=O)O[C@H](c3ccccc3)[C@H](c3ccccc3)N1[C@@H]2c1ccccc1OCCO have a reported z-score of at least -0.7?
true (1)

# bool: z-score of CN1C(=O)[C@]2(Cc3ccccc3)N=C(c3ccc(OCCCO)cc3)O[C@@H]2c2ccccc21 >= -0.7
false (0)

Switching to the query record.
Is z-score for COC(=O)C(CC#Cc1ccc2c(c1)[C@]1(C(=O)N2)[C@H](c2ccc(O)cc2)N2[C@H](c3ccccc3)[C@H](c3ccccc3)OC(=O)[C@H]2[C@@H]1C(=O)Nc1nc2ccccc2s1)C(=O)OC at or above -0.7?
true (1)

----------
Tested System: NADPH oxidase 2 (Homo sapiens)
Method Description: NOX2-dependent H2O2 signal modulators, primary screen, NOX inhibitor project, cell-based, HEK293-NOX2, PMA-stimulated, Amplex Red fluorescence (AID 1159); also: test concentration not given here
Assay Setup: 45 min, higher = more signal, called active from +8 up or from −8 down
Measured z-score, listed per entry for reference.
// no unit string in output, number only

Please report the recorded z-score for O=C1c2ccccc2[C@@]2(Cc3ccccc3N(CCN3CCOCC3)C2=O)[C@H](c2ccc(CO)cc2)N1Cc1ccccc1 .
0.0706

For the molecule shown here, CCCCC(O)C1C=CC2C(=O)N(c3ccccc3)C(=O)C2N1Nc1ccccc1F (stereo not given) , give the reported z-score.
-1.2

// z-score lookup, key: COCCOC(=O)N1C(=O)[C@@]2(c3cc(C#CC4(O)CCCCCC4)ccc31)[C@H](c1ccc(O)cc1)N1[C@H](c3ccccc3)[C@H](c3ccccc3)OC(=O)[C@H]1[C@@H]2C(=O)Nc1nc2ccccc2s1
1.75

Field request: z-score | item: O=C1OCCC=C[C@H]2OC34C=CCN(CCN5CCOCC5)C(=O)[C@H]3N(CCCCCCO)C(=O)[C@@H]4C12 (stereo not given in full)
0.658

Would you mind telling me what z-score value was observed for O=C1O[C@H](c2ccccc2)[C@H](c2ccccc2)N2[C@H]1[C@@H](C(=O)NC[C@H](O)c1ccccc1)[C@]1(C(=O)Nc3ccccc31)[C@H]2c1ccc(OCCO)cc1 ?
1.55

Reported z-score for C[C@@]1([C@@H](NC(=O)c2ccccc2)c2ccc(-c3ccccc3)cc2)C[C@H]1C1CCCCC1 : what is it?
-0.658

Give the measured z-score of CC(C)(C)OC(=O)CC[C@@]1(C(=O)NCC(O)CO)N=C(c2ccc(OCCCO)cc2)O[C@@H]1c1ccccc1N=[N+]=[N-] (stereo not given in full) .
-2.77

So what does the record say about z-score for NCCCCCNC(=O)[C@@H]1C[C@@H]2C(=O)NCC(=O)N2[C@@H]1c1ccc(O)cc1 ?
-0.354

Given the molecule CN(C)CCCCCCNC(=O)[C@@H]1C[C@@H]2C(=O)N[C@@H](CCCCN)C(=O)N2[C@@H]1c1cccc(OCCO)c1 , what is its reported z-score?
0.853

Requested field: z-score. Item: C#CCNC(=O)[C@H](Cc1ccccc1)NC(=O)CCC(=O)O
0.658

Sample CCCC=C(CCC)[C@@H](NS(=O)(=O)c1cccs1)c1ccc(C(=O)OC)cc1 — what was its z-score?
-0.547

Could you tell me which z-score is on file for O=C1[C@H]2C=C(Br)[C@H](C[C@@H]2c2ccccc2)[C@@]12CO2 ?
0.242

For COc1ccc(C#Cc2ccc3c(c2)[C@]2(C(=O)N3)[C@H](c3ccccc3OCCO)N3[C@H](c4ccccc4)[C@H](c4ccccc4)OC(=O)[C@H]3[C@@H]2C(=O)O)cc1 , what is its reported z-score?
0.441

Request the reported z-score associated with COc1cc2c(cc1OC)CN(C(=O)[C@@H]1[C@H]3C(=O)O[C@H](c4ccccc4)[C@H](c4ccccc4)N3[C@H](c3ccc(O)cc3)[C@@]13C(=O)Nc1ccc(C#CC4(O)CCCCCC4)cc13)CC2
1.65
